assayMethodText: compound binding in COS7 lysate, probe aLAP1, primary screen, cell lysate, small-molecule microarray (AID 1124);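 note: lysate comes from COS7 cells expressing LAP1 and is applied at 0.3 µg/mL; score merges spot fluorescence near 667 nm with signal-to-noise over triplicate slides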
conditionSet: probe aLAP1, fluorescence, higher = more signal
composite z-score vs -0.2: at or above is class 1, below is class 0.

Answered examples (10):
>>> classlabel("CCOC(=O)[C@H](Cc1ccccc1)NC(=O)CCC1CC(OC(=O)NCCc2ccc(F)cc2)CC2(CCCC(COC(=O)NCCc3ccc(Cl)cc3)O2)O1 (some centres not stated)")
"class 1"
>>> classlabel("COC(=O)CC=C[C@@H](C)[C@@H](C=NOC[C@H]1O[C@H](c2ccccc2)C=C[C@@H]1Oc1ccc(OC)cc1)NS(=O)(=O)c1ccc(C)cc1")
"class 0"
>>> classlabel("Cc1ccc(S(=O)(=O)N[C@H]2COC(=O)CC=C[C@@H](C)COC(=O)CC=C[C@@H]2C)cc1")
"class 0"
>>> classlabel("CCOC(=O)[C@H](CC(C)C)NC(=O)CCC1CC(OC(=O)NCCc2ccc(F)cc2)CC2(CCCC(COC(=O)NCCOc3ccccc3)O2)O1 (some centres not stated)")
"class 1"
>>> classlabel("CCCNC(=O)OC[C@H]1O[C@H](CCON=C(C)CCN2CCCc3nc(C)c(C)cc32)C=C[C@@H]1Oc1ccc(OC)cc1")
"class 1"
>>> classlabel("CCOC(=O)NN=C1C[C@@H](O)[C@@H](O)[C@@H]2[C@@H]3C(=O)N(Cc4ccccc4)C(=O)[C@@H]3CC[C@H]12")
"class 0"
>>> classlabel("CCOC(=O)C1=NO[C@@]2(C=C(Br)C3(OCCCO3)[C@H]3O[C@H]32)C1")
"class 1"
>>> classlabel("CC(CCN1CCCCc2nc(C)c(C)cc21)=NO[C@@H](C)c1cn([C@H](CO)Cc2ccccc2)nn1")
"class 0"
>>> classlabel("CCOC(=O)[C@H](Cc1ccccc1)NC(=O)CCC1CC(OC(=O)NCCc2ccc(F)cc2)CC2(CCCC(COC(=O)NCCc3ccccc3OC)O2)O1 (some centres not stated)")
"class 1"
>>> classlabel("Cc1ccc(S(=O)(=O)N[C@H]2COC(=O)CC=C[C@H](C)[C@@H](NS(=O)(=O)c3ccc(C)cc3)COC(=O)CC=C[C@@H]2C)cc1")
"class 0"

Request: Form field: composite z-score at least -0.2? Entry: CO[C@H](C1CCCCC1)[C@H](C)C=CCC(=O)OCCCc1ccccc1
Result: class 1

Request: State whether the measured composite z-score reaches -0.2, counting equality as reaching it, for C#CCCCON=C1C[C@@H](O)[C@@H](O)[C@@H]2[C@@H]3C(=O)N(Cc4ccccc4)C(=O)[C@@H]3CC[C@@H]12
Result: class 1

Request: Test whether the compound C=C(C)C(=O)OCC1CN2[C@@H](CC[C@@H](C)[C@@H]2c2ccc(Br)cc2)C(=O)O1 (some centres not stated) records composite z-score of -0.2 or higher.
Result: class 1

====

assayMethodText: small-molecule microarray binders of probe aNog, primary screen, biochemical, biotinylated probe, 635/667 nm fluorescence (AID 1115);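 note: probe is biotinylated aNog protein used at 0.15 µg/mL for 1 h at 4 C; z-score combines 667 nm fluorescence of each spot with its signal to noise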
conditionSet: higher = more signal
experimentalReadout: composite z-score
# answer = number (no unit)

>>> reportedmeasurement("O=C1C=C[C@@H](O)[C@@H]2[C@@H]3C(=O)N(C[C@@H]4CCCO4)C(=O)[C@@H]3CC[C@@H]12")
-0.176
>>> reportedmeasurement("CCC1=NOC(CCC2CC(OC(=O)NCc3cccc4c3OCO4)CC3(CCCC(COC(=O)NCCc4ccccc4OC)O3)O2)C1 (stereo not drawn)")
0.249

composite z-score recorded for this compound, CC(C)=CCCC(C)=CCON=C1C[C@@H](O)[C@@H](O)[C@@H]2[C@@H]3C(=O)N(C[C@@H]4CCCO4)C(=O)[C@@H]3CC[C@H]12 , is -0.278
